B1: VH:VL chains; a variant is named by its letters at X, in order (parent)
chain 1: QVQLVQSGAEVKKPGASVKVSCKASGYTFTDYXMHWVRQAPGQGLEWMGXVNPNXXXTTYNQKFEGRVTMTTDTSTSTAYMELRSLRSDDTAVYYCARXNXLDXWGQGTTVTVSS
chain 2: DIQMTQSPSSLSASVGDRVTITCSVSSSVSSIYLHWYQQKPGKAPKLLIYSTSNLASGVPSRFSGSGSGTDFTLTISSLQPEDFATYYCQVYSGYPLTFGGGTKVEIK

variants of: B1; test: yeast display scFab, FACS + sequencing
Metric: non-specific binding call

Sample answers from the record:
>>> measured_result("AETGASLS")
"no binding"
>>> measured_result("YRRGASSS")
"binds"
>>> measured_result("DTGGGDAV")
"no binding"
>>> measured_result("VRGGSDGY")
"no binding"
>>> measured_result("YRARSSLY")
"binds"

Lab note: next variant to report on.
Task: Requested field: non-specific binding call. Item: VAGGDDVF
Output: no binding
